System: Staphylococcus aureus (ATCC# 29213)
Assay: Antibacterial activity, standard broth (liquid) dilution
Assay type: cell-based
Conditions: Luria Bertani broth, peptide 1, 10, 50, 100 μg/mL, 37 °C, 24 h, absorbance 600 nm; MIC interpolated at 0% bacterial growth; average of three independent experiments
Where no end group is shown, it is not given here.
Assign MIC S. aureus to each entry below.
The reply should contain only the number, in mg/L.

Item under review: ILGKIWKGIKSLF-NH2 [IsCT1K7] . Reported MIC S. aureus?
100

Which measured MIC S. aureus value corresponds to ILGKIWEGIKSLF-NH2 [IsCT1, reference compound] ?
50

Fill in the blank: the reported MIC S. aureus of IFGAIWNGIKSLF-NH2 [IsCT2, reference compound] is ____.
50

# lookup: MIC S. aureus of ILGKLWEGLKSLF-NH2 [IsCT1L1]
50
